Target: T1, mouse BCMA with a His tag (ACROBiosystems, Catalog No.: BCA-M52H3) (mouse)
T1 construct: Bought His-tagged recombinant protein
T1 chain: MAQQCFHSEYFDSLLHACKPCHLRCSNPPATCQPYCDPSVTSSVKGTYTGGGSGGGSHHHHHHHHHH
Assay: ELISA, plate-coated mouse BCMA-His
Answer each item with its documented EC50.
Write the value in µg/mL as a bare number.

Qu. For the binder SCT-Aa13(m/m) (antibody, V domains shown, Full IgG format: mouse IgG1 heavy chain constant region, mouse kappa light chain constant region) VH: QVQLQQSDAELVKPGASVKISCKVSGYTFTDYTIHWMKQRPEQGLEWIGYIYPRDGSTKYNEKFKGKATLTADKSSSTAYMQLNSLTSEDSAVYFCARWDYEGFDYWGQGTTLTVSS VL: DIVMTQSPATLSVTPGDRVSLSCRASQSISDYLHWYQQKSHESPRLLIKYASQSISGIPSRFSGSGSGSDFTLSINSVEPEDVGVYYCQNGHSFPPTFGSGTKLEIK , what EC50 is on record?
Ans. 0.529

Qu. For the binder SCT-Aa04(m/m) (antibody, V domains shown, Full IgG format: mouse IgG1 heavy chain constant region, mouse kappa light chain constant region) VH: EVKLLQSGGGLVQPGGSLKLSCAASGIDFSRYWMSWVRRAPGKGLEWIGEINPDSSTINYAPSLKDKFIISRDNAKNTLYLQMSKVRSEDTALYYCASFYYDYDRGAAMDYWGQGTSVTVSS VL: DIVMTQSQKFMSTSVGDRVSVTCKASQNVGTNVAWYQQKPGQSPKALIYSASYRYSGVPDRFTGSGSGTDFTLTISNVQSEDLAEYFCQQYNSYPYTFGGGTKLEIK , what EC50 is on record?
Ans. 0.0343

Qu. For the binder SCT-Aa08(h/h) (antibody, V domains shown, Full IgG format, chimeric: human IgG1 heavy chain constant region, human kappa light chain constant region) VH: QVQLQQSDAELVKPGASVKISCKVSGYTFIDHTIHWMKQRPEQGLEWIGYIYPRIDSSKCNEKFKDKATLTADKSSNTAYIQLNSLTSEDSAVYFCARWDYEGFDYWGQGTTLTVSS VL: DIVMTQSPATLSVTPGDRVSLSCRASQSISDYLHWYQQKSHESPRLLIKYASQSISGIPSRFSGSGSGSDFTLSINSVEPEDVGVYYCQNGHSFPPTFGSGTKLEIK , what EC50 is on record?
Ans. 0.377

Qu. For the binder SCT-Aa02(m/m) (antibody, V domains shown, Full IgG format: mouse IgG1 heavy chain constant region, mouse kappa light chain constant region) VH: EVKLLQSGGGLVQPGGSLKLSCAASGIDFSRYWMSWVRRAPGKGLEWIGEINPDSSTINSAPSLEDKFIISRDNAKNTLYLQMSKVRSEDTALYYCASLYYDYERDYAMDYWGQGASVTVSS VL: DIVMTQSQKFMSTSVGDRVSVTCKASQNVGTNVAWYQQKPGQSPKALIYSASYRFSGVPDRFTGSGSGTDFTLTISNVQSEDLAEYFCQQYHSYPFTFGGGTKLEIK , what EC50 is on record?
Ans. 0.00262

Qu. For the binder SCT-Aa10(h/h) (antibody, V domains shown, Full IgG format, chimeric: human IgG1 heavy chain constant region, human kappa light chain constant region) VH: QVQLQQSDAELVKPGASVKISCKVSGYTFTDHTIHWMKQRPEQGLEWIGYIFPRDGNTKYNEKFKGKATMTADKSSSTAYMQLNSLTSEDSAVYFCARWDYEGFDCWGQGTTLTVSS VL: DIVMTQSPATLSVTPGDRVSLSCRASQSISDYLHWYQQKSHESPRLLIKYASQSISGIPSRFSGSGSGSDFTLSINSVEPEDVGVYFCQNGHSFPPTFGSGTKLEIK , what EC50 is on record?
Ans. 0.941

Qu. For the binder SCT-Aa15(h/h) (antibody, V domains shown, Full IgG format, chimeric: human IgG1 heavy chain constant region, human kappa light chain constant region) VH: QVQLQQSDAELVKPGPSVKISCKVSGSTFTDHTVHWMKQRPEQGLEWIGYVYPRDGSTRYNEKFKGKATLTADKSSSTAYMQLNSLTSEDSAVYFCARWDYEGFDYWGQGTTLTVSS VL: DIVMTQSPATLSVTPGDRVSLSCRASQNISDYLHWYQQKSHESPRLLIKYASQSISGIPSRFSGSGSGSDFTLSINSVEPEDVGVYYCQNGHSFPPTFGSGTKLKIK , what EC50 is on record?
Ans. 0.226
